- system: HLA-A*24:03
- run-description: IEDB peptide-MHC binding, purified MHC/competitive/fluorescence; filed as Kd, often an IC50 or EC50 that approximates it; bounds were set here for any values at or beyond the usual limits of such assays
- condition-summary: source organism: Brucella melitensis bv. 1 str. 16M
pKd: −log10 of the molar value.
endpoint-label: pKd

Item `AVGVVCTGL` with HLA-A*24:03 - pKd?
≤ 4.70

---

- system: HLA-A*11:01
- run-description: IEDB peptide-MHC binding, purified MHC/competitive/fluorescence; bounds were set here for any values at or beyond the usual limits of such assays
- condition-summary: source organism: Sudan ebolavirus
endpoint-label: IC50 (nM)
Note: unit nM is implicit; provide only the numeric part.

Param item = `RTYTILNRK` ; retrieve measured IC50.
163

---

- system: HLA-B*58:01
- run-description: IEDB peptide-MHC binding, purified MHC/direct/fluorescence; filed as Kd, often an IC50 or EC50 that approximates it; bounds were set here for any values at or beyond the usual limits of such assays
- condition-summary: source organism: Cryptosporidium parvum
pKd: −log10 of the molar value.
endpoint-label: pKd

Need pKd of `DFIGKTIGF` , thanks.
≤ 4.70

---

- system: HLA-B*46:01
- run-description: IEDB peptide-MHC binding, purified MHC/direct/fluorescence; filed as Kd, often an IC50 or EC50 that approximates it; bounds were set here for any values at or beyond the usual limits of such assays
- condition-summary: source organism: Influenza A virus (A/WSN/1933(H1N1))
endpoint-label: Kd

// lookup Kd for `NLEPGTFDL`
≥ 20 µM

---

- system: HLA-A*01:01
- run-description: IEDB peptide-MHC binding, purified MHC/competitive/fluorescence; filed as Kd, often an IC50 or EC50 that approximates it; bounds were set here for any values at or beyond the usual limits of such assays
- condition-summary: source organism: Pleistophora sp. LS
endpoint-label: Kd

What value of Kd has been reported for the following sequence? `VELQIGWTV`
≥ 20 µM

---

- system: HLA-A*02:03
- run-description: IEDB peptide-MHC binding, purified MHC/competitive/radioactivity; filed as Kd, often an IC50 or EC50 that approximates it; bounds were set here for any values at or beyond the usual limits of such assays
- condition-summary: source organism: SARS coronavirus Tor2
endpoint-label: Kd (nM)
Answer format: numeric, nM implied, no suffix.

LMWFIISIV: 7.18
LIANIFTPLV: 13.4
LLLEWLAEVV: 0.813

I'd like to know its Kd. The sequence in question is `YVVVHGYFT`
792

Now the same for `FLLFLVLIML`
1380

---

- system: HLA-B*40:01
- run-description: IEDB peptide-MHC binding, purified MHC/direct/fluorescence; filed as Kd, often an IC50 or EC50 that approximates it; bounds were set here for any values at or beyond the usual limits of such assays
- condition-summary: source organism: Haemophilus influenzae
pKd: −log10 of the molar value.
endpoint-label: pKd

Which value of pKd has been reported for `VYFSPWFFL` in the records?
≤ 4.70

---

- system: HLA-B*51:01
- run-description: IEDB peptide-MHC binding, purified MHC/competitive/fluorescence; filed as Kd, often an IC50 or EC50 that approximates it; bounds were set here for any values at or beyond the usual limits of such assays
- condition-summary: source organism: Zaire ebolavirus
pKd: −log10 of the molar value.
# maps each entry to its pKd

SWHHTSDDF: ≤ 4.70

Query sequence follows.
Give recorded pKd with HLA-B*51:01 for the following sequence: `KRLQILGYL`
≤ 4.70
